Biological target: α2AAR (Homo sapiens, UniProt P08913)
Construct: host or cells: HEK293 (membranes)
Sequence (P08913 whole entry, species assumed): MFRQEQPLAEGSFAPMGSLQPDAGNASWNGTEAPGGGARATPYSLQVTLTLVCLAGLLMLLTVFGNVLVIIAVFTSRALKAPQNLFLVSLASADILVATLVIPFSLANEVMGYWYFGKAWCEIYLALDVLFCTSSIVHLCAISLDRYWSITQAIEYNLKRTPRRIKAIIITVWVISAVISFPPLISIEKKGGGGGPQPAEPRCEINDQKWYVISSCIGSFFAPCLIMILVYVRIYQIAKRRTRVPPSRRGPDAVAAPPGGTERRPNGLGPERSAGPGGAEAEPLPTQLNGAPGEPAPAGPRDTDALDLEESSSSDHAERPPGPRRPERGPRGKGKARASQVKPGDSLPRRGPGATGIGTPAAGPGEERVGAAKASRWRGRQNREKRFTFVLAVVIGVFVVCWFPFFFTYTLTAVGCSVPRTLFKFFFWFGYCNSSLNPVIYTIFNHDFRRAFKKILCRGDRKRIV
Experiment: α2AAR binding assay ([3H]-RX 821002 radioligand)
Conditions: [3H]-RX 821002 0.5 nM, HEK293 membranes; read-out: α2A affinity (Ki)
pKi: −log10 of the molar value.
Form field: pKi (one value per entry).

# count of solved cases: 3
[
  {
    "compound": "Cc1cccc(C(c2cccc(NC(=O)CCN3CCN(C)CC3)c2)c2c[nH]cn2)c1C (stereo not shown) [compound 82]",
    "measured metric": "pKi",
    "data value": "< 6.00"
  },
  {
    "compound": "Cc1cccc(C(c2c[nH]cn2)C2CCCC(C(=O)O)C2)c1C (stereo not shown) [compound 60]",
    "measured metric": "pKi",
    "data value": "6.00 to 6.60"
  },
  {
    "compound": "Cc1cccc(C(c2cccc(NC(=S)CC3CCOCC3)c2)c2c[nH]cn2)c1C (stereo not shown) [compound 161]",
    "measured metric": "pKi",
    "data value": "> 8.00"
  }
]

-- ask What pKi value was documented for this compound, Cc1cccc(C(c2cccc(NC(=O)CCC#N)c2)c2c[nH]cn2)c1C (single isomer, unassigned) [43-A] ?
-- reply < 6.00

-- ask What pKi value was documented for this compound, Cc1cccc(C(c2cccc(CNS(C)(=O)=O)c2)c2c[nH]cn2)c1C (stereo not shown) [compound 69] ?
-- reply 6.60 to 7.30

* * *

Target: α2AAR (Homo sapiens, UniProt P08913)
Construct: host or cells: HEK293 (membranes)
Experiment: α2AAR binding assay ([3H]-RX 821002 radioligand)
Settings: [3H]-RX 821002 0.5 nM, HEK293 membranes; read-out: α2A affinity (Ki)
measured metric: Ki

# count of solved cases: 5
[
  {
    "compound": "CC(=O)NCc1cccc(C(c2c[nH]cn2)c2cccc(C)c2C)c1 (centres unmarked)",
    "data value": "50 to 250 nM"
  },
  {
    "compound": "Cc1cccc(C(Cc2ccc(C(=O)O)cc2)c2c[nH]cn2)c1C (centres unmarked) [compound 175]",
    "data value": "250 to 1000 nM"
  },
  {
    "compound": "Cc1cccc(C(c2cccc(NS(=O)(=O)CCC#N)c2)c2c[nH]cn2)c1C (centres unmarked)",
    "data value": "10 to 50 nM"
  },
  {
    "compound": "Cc1csc(CCS(=O)(=O)Nc2cccc(C(c3c[nH]cn3)c3cccc(C)c3C)c2)n1 (centres unmarked)",
    "data value": "10 to 50 nM"
  },
  {
    "compound": "CS(=O)(=O)Nc1cccc(C(c2c[nH]cn2)c2c(F)cccc2Cl)c1 (centres unmarked)",
    "data value": "250 to 1000 nM"
  }
]

-- ask What Ki value was documented for this compound, CONC(=O)c1cccc(CC(NC2=NCCS2)c2cccc(C)c2C)c1 (centres unmarked) ?
-- reply < 10 nM

-- ask What Ki value was documented for this compound, Cc1cccc(C(c2cccc(NS(C)(=O)=O)c2)c2c[nH]cn2)c1C (centres unmarked) [compound 29] ?
-- reply < 10 nM

-- ask What Ki value was documented for this compound, Cc1cccc(C(c2cccc(C(N)=O)c2)c2c[nH]cn2)c1C (single isomer, unassigned) ?
-- reply 10 to 50 nM
